system: Isogenic HCT-116 colon cancer cell lines; experiment: cells; format: cell-based; conditions: read-out: Inhibition of cell growth IC50, HCT116 p53 WT; Table 19B; HCT116 p53 WT;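 also: cells grown in 96-well plates in McCoy's 5A medium with 10% FBS, exposed to compound for 4 days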
value type: log10(IC50) (log10 of the value in nM)

- compound: "O=C(NCC[C@H](O)CO)[C@@H]1N[C@H](CC2CCCCC2)[C@]2(C(=O)Nc3cc(Cl)c(F)cc32)[C@H]1c1cccc(Cl)c1 [MI-716C]"
  test system: "Isogenic HCT-116 colon cancer cell lines"
  log10(IC50): 2.85
- compound: "CN1[C@@H](C(=O)NCC[C@H](O)CO)[C@H](c2cccc(Cl)c2)[C@@]2(C(=O)Nc3cc(Cl)c(F)cc32)[C@H]1CC(C)(C)C [MI-708B]"
  test system: "Isogenic HCT-116 colon cancer cell lines"
  log10(IC50): 3.82
- compound: "O=C(NCC[C@H](O)CO)[C@@H]1N[C@H](CC2CCCCC2)[C@]2(C(=O)Nc3cc(Cl)c(F)cc32)[C@H]1c1cccc(Cl)c1 [MI-716B]"
  test system: "Isogenic HCT-116 colon cancer cell lines"
  log10(IC50): 2.78
- compound: "O=C(NCC[C@H](O)CO)[C@@H]1N[C@H](CCc2ccco2)[C@]2(C(=O)Nc3cc(Cl)c(F)cc32)[C@H]1c1cccc(Cl)c1 [MI-715C]"
  test system: "Isogenic HCT-116 colon cancer cell lines"
  log10(IC50): 3.46
- compound: "CN1[C@@H](C(=O)NCC[C@H](O)CO)[C@H](c2cccc(Cl)c2)[C@@]2(C(=O)Nc3cc(Cl)c(F)cc32)[C@H]1CC(C)(C)C [MI-717]"
  test system: "Isogenic HCT-116 colon cancer cell lines"
  log10(IC50): 3.34
- compound: "CN1[C@@H](C(=O)NCC[C@H](O)CO)[C@H](c2cccc(Cl)c2)[C@@]2(C(=O)Nc3cc(Cl)c(F)cc32)[C@H]1CC(C)(C)C [MI-708A]"
  test system: "Isogenic HCT-116 colon cancer cell lines"
  log10(IC50): 3.58
- compound: "CC(C)CC(C)(C)C[C@H]1N(C)[C@@H](C(=O)NCC[C@H](O)CO)[C@H](c2cccc(Cl)c2)[C@@]12C(=O)Nc1cc(F)c(F)cc12 [MI-737]"
  test system: "Isogenic HCT-116 colon cancer cell lines"
  log10(IC50): 3.65
